- experimental_system: Discoidin domain-containing receptor 2 (Homo sapiens, UniProt Q16832); also: in the data inactive means no Kd found up to 30 µM
- Sequence (Q16832 whole entry): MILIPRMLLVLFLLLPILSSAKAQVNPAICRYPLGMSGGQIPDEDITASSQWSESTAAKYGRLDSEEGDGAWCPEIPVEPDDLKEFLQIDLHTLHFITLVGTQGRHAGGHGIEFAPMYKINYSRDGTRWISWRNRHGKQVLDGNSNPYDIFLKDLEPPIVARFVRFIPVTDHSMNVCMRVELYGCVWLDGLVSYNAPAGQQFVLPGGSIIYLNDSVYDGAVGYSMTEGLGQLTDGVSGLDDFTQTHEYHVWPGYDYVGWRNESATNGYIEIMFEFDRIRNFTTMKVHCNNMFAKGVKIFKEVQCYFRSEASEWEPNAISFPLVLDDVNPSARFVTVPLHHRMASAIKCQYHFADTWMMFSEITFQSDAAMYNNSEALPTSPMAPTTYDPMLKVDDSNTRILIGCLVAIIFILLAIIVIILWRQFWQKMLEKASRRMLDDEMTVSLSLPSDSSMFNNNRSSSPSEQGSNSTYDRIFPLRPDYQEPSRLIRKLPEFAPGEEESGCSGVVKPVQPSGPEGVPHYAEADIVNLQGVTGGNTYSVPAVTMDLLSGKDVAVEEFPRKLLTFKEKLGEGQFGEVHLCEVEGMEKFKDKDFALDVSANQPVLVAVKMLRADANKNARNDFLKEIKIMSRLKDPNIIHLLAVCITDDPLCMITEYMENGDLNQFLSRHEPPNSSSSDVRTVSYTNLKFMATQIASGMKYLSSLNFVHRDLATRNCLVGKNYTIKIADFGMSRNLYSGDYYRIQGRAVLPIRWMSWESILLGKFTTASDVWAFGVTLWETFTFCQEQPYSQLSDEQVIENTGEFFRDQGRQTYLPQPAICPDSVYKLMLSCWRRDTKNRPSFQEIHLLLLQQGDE
The source made the active and inactive calls.
Classes used: active, inactive

> print(dat)
                                   compound  assigned.label
1  Cn1cnc2c(F)c(Nc3ccc(Br)cc3F)c(C(=O)NOCCO)cc21        inactive
2  CCOc1cc2ncc(C#N)c(Nc3ccc(F)c(Cl)c3)c2cc1NC(=O)/C=C/CN(C)C        inactive
3  O=c1[nH]ccc2cc(OC3CCNCC3)ccc12 [SAR-407899 FREE BASE]        inactive
4  Cc1nc2cc(-n3ncc(C(=O)c4cc5ccccc5[nH]4)c3N)ccc2[nH]1        inactive
5  CC(=O)c1cnc2ccc(-c3cc(Cl)c(O)c(Cl)c3)nc2c1N[C@H]1CC[C@H](CN(C)C)CC1          active
6  Cc1nc2cc(-c3nn(C(C)C)c4ncnc(N)c34)ccc2o1          active
7  CC(=O)NCC(=O)N1[C@@H]2CC[C@H]1c1ccc(Nc3ncc(C(F)(F)F)c(NC4CCC4)n3)cc12        inactive
8  NC(=O)Nc1cc(-c2cccc(F)c2)sc1C(=O)N[C@H]1CCCNC1        inactive
